Target: Glucagon-like peptide 1 receptor (Rattus norvegicus) (UniProt P32301)
Assay: Inhibition of [125I]GLP1 (7-36) amide binding to rat GLP1R expressed in HEK293 cells relative to untreated control
Format: cell-based
Set-up: concentration or dose not given beside the values
Settings: concentration not given here
Grouping rule (inhibition): low end = under 40%, middle = from 40% up to 60%, high end = 60% and over

COMPOUND	ASSAY TARGET	CATEGORY LABEL
CCOc1cc([C@H]2[C@](NC(=O)c3ccc(NC(=O)OC(C)(C)C)cc3)(C(=O)O)[C@@H](c3ccc(OC(=O)c4cccs4)c(OCC)c3)[C@]2(NC(=O)c2ccc(NC(=O)OC(C)(C)C)cc2)C(=O)O)ccc1OC(=O)c1cccs1	Glucagon-like peptide 1 receptor (Rattus norvegicus) (UniProt P32301)	middle
COc1cc([C@H]2[C@](NC(=O)c3ccc(NC(=O)CCl)cc3)(C(=O)O)[C@@H](c3ccc(OC(=O)c4cccs4)c(OC)c3)[C@]2(NC(=O)c2ccc(NC(=O)CCl)cc2)C(=O)O)ccc1OC(=O)c1cccs1	Glucagon-like peptide 1 receptor (Rattus norvegicus) (UniProt P32301)	middle
COc1cc([C@H]2[C@](NC(=O)c3ccc(NC(=O)C(C)N)cc3)(C(=O)O)[C@@H](c3ccc(OC(=O)c4cccs4)c(OC)c3)[C@]2(NC(=O)c2ccc(NC(=O)C(C)N)cc2)C(=O)O)ccc1OC(=O)c1cccs1 (some centres not stated)	Glucagon-like peptide 1 receptor (Rattus norvegicus) (UniProt P32301)	low end
COc1cc([C@H]2[C@](NC(=O)c3ccc(NC(=O)OC(C)(C)C)cc3)(C(=O)O)[C@@H](c3ccc(OC(C)=O)c(OC)c3)[C@]2(NC(=O)c2ccc(NC(=O)OC(C)(C)C)cc2)C(=O)O)ccc1OC(C)=O	Glucagon-like peptide 1 receptor (Rattus norvegicus) (UniProt P32301)	middle
COc1cc([C@H]2[C@](NC(=O)c3ccc(NC(=O)OC(C)(C)C)cc3)(C(=O)O)[C@@H](c3ccc(OC(=O)Cc4ccccc4)c(OC)c3)[C@]2(NC(=O)c2ccc(NC(=O)OC(C)(C)C)cc2)C(=O)O)ccc1OC(=O)Cc1ccccc1	Glucagon-like peptide 1 receptor (Rattus norvegicus) (UniProt P32301)	low end
COc1cc([C@H]2[C@](NC(=O)c3ccc(NC(=O)OC(C)(C)C)cc3)(C(=O)O)[C@@H](c3ccc(OC(=O)c4cccs4)c(OC)c3)[C@]2(NC(=O)c2ccc(NC(=O)OC(C)(C)C)cc2)C(=O)O)ccc1OC(=O)c1cccs1 (stereo in doubt; 3)	Glucagon-like peptide 1 receptor (Rattus norvegicus) (UniProt P32301)	high end
COc1cc([C@H]2[C@](NC(=O)c3ccc(NC(=O)OC(C)(C)C)cc3)(C(=O)O)[C@@H](c3ccc(OC(=O)c4cccs4)c(OC)c3)[C@]2(NC(=O)c2ccc(NC(=O)OC(C)(C)C)cc2)C(=O)O)ccc1OC(=O)c1cccs1 (stereo in doubt)	Glucagon-like peptide 1 receptor (Rattus norvegicus) (UniProt P32301)	high end
CC(C)(C)OC(=O)Nc1ccc(C(=O)N[C@]2(C(=O)O)[C@H](c3ccc(OC(=O)c4ccccc4)cc3)[C@@](NC(=O)c3ccc(NC(=O)OC(C)(C)C)cc3)(C(=O)O)[C@@H]2c2ccc(OC(=O)c3ccccc3)cc2)cc1	Glucagon-like peptide 1 receptor (Rattus norvegicus) (UniProt P32301)	low end
COc1cc([C@H]2[C@](NC(=O)c3ccc(NC(=O)OC(C)(C)C)cc3)(C(=O)O)[C@@H](c3ccc(OCc4ccc(F)cc4)c(OC)c3)[C@]2(NC(=O)c2ccc(NC(=O)OC(C)(C)C)cc2)C(=O)O)ccc1OCc1ccc(F)cc1	Glucagon-like peptide 1 receptor (Rattus norvegicus) (UniProt P32301)	low end
CCCC(=O)Oc1ccc([C@H]2[C@](NC(=O)c3ccc(NC(=O)OC(C)(C)C)cc3)(C(=O)O)[C@@H](c3ccc(OC(=O)CCC)c(OC)c3)[C@]2(NC(=O)c2ccc(NC(=O)OC(C)(C)C)cc2)C(=O)O)cc1OC	Glucagon-like peptide 1 receptor (Rattus norvegicus) (UniProt P32301)	high end
COc1cc([C@H]2[C@](NC(=O)c3ccc(NC(=S)Nc4cccc5ccccc45)cc3)(C(=O)O)[C@@H](c3ccc(OC(=O)c4cccs4)c(OC)c3)[C@]2(NC(=O)c2ccc(NC(=S)Nc3cccc4ccccc34)cc2)C(=O)O)ccc1OC(=O)c1cccs1	Glucagon-like peptide 1 receptor (Rattus norvegicus) (UniProt P32301)	middle
COc1cc([C@H]2[C@](NC(=O)c3ccc(NC(=O)C45CC6CC(CC(C6)C4)C5)cc3)(C(=O)O)[C@@H](c3ccc(OC(=O)c4cccs4)c(OC)c3)[C@]2(NC(=O)c2ccc(NC(=O)C34CC5CC(CC(C5)C3)C4)cc2)C(=O)O)ccc1OC(=O)c1cccs1	Glucagon-like peptide 1 receptor (Rattus norvegicus) (UniProt P32301)	middle
CC(C)(C)OC(=O)Nc1ccc(C(=O)N[C@]2(C(=O)O)[C@H](c3ccc(OC(=O)c4cccs4)cc3)[C@@](NC(=O)c3ccc(NC(=O)OC(C)(C)C)cc3)(C(=O)O)[C@@H]2c2ccc(OC(=O)c3cccs3)cc2)cc1	Glucagon-like peptide 1 receptor (Rattus norvegicus) (UniProt P32301)	high end

====

Target: UniProtKB P32301
Assay: Inhibition of [125I]GLP1 (7-36) amide binding to rat GLP1R expressed in HEK293 cells relative to untreated control
Assay type: cell-based
Design: concentration or dose not given beside the values
Details: concentration not given here

COMPOUND	inhibition / %
COc1cc([C@H]2[C@](NC(=O)c3ccc(NC(=O)Cc4ccccc4)cc3)(C(=O)O)[C@@H](c3ccc(OC(=O)c4cccs4)c(OC)c3)[C@]2(NC(=O)c2ccc(NC(=O)Cc3ccccc3)cc2)C(=O)O)ccc1OC(=O)c1cccs1	45.7
COc1cc([C@H]2[C@](NC(=O)c3ccc(NC(=O)C(C)C)cc3)(C(=O)O)[C@@H](c3ccc(OC(=O)C4CCC4)c(OC)c3)[C@]2(NC(=O)c2ccc(NC(=O)C(C)C)cc2)C(=O)O)ccc1OC(=O)C1CCC1	47.9
COc1cc([C@H]2[C@](NC(=O)c3ccc(NC(=O)C(C)(C)C)cc3)(C(=O)O)[C@@H](c3ccc(OC(=O)c4cccs4)c(OC)c3)[C@]2(NC(=O)c2ccc(NC(=O)C(C)(C)C)cc2)C(=O)O)ccc1OC(=O)c1cccs1	47.6
COc1cc([C@H]2[C@](NC(=O)c3ccc(NC(=O)OC(C)(C)C)cc3)(C(=O)O)[C@@H](c3ccc(OC(=O)C(C)C)c(OC)c3)[C@]2(NC(=O)c2ccc(NC(=O)OC(C)(C)C)cc2)C(=O)O)ccc1OC(=O)C(C)C	47.2
COc1cc([C@H]2[C@](NC(=O)c3ccc(NC(=O)C(C)NC(=O)OC(C)(C)C)cc3)(C(=O)O)[C@@H](c3ccc(OC(=O)c4cccs4)c(OC)c3)[C@]2(NC(=O)c2ccc(NC(=O)C(C)NC(=O)OC(C)(C)C)cc2)C(=O)O)ccc1OC(=O)c1cccs1 (some centres undefined)	77.3
COc1cc([C@H]2[C@](NC(=O)c3ccc(NC(=O)Nc4cccc(F)c4)cc3)(C(=O)O)[C@@H](c3ccc(OC(=O)c4cccs4)c(OC)c3)[C@]2(NC(=O)c2ccc(NC(=O)Nc3cccc(F)c3)cc2)C(=O)O)ccc1OC(=O)c1cccs1	3.2
COc1cc([C@H]2[C@](NC(=O)c3ccc(NC(C)=O)cc3)(C(=O)O)[C@@H](c3ccc(OC(=O)c4cccs4)c(OC)c3)[C@]2(NC(=O)c2ccc(NC(C)=O)cc2)C(=O)O)ccc1OC(=O)c1cccs1	55.4

====

Biological target: Glucagon-like peptide 1 receptor (Rattus norvegicus)
Sequence (whole entry): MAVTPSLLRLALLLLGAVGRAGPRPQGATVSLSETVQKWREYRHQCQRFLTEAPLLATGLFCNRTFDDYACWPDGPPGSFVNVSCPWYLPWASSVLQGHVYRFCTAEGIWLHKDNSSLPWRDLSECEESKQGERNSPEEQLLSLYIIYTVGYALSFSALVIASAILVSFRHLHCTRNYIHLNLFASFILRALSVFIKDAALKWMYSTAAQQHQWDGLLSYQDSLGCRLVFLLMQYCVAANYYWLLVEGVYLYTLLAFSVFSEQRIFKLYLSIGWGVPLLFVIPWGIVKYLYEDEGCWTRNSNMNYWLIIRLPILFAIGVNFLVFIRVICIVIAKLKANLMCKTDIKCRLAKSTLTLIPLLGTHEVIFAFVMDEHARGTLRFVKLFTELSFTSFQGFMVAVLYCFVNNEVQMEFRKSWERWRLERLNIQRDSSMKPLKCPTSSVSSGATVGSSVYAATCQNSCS
Assay: Inhibition of [125I]Exendin (9-39) binding to rat GLP1R expressed in HEK293 cells
Assay type: cell-based
Parameters: concentration or dose not given beside the values
Details: concentration not given here

MOLECULE	inhibition (%)
COc1cc([C@H]2[C@](NC(=O)c3ccc(NC(=O)OC(C)(C)C)cc3)(C(=O)O)[C@@H](c3ccc(NC(C)=O)c(OC)c3)[C@]2(NC(=O)c2ccc(NC(=O)OC(C)(C)C)cc2)C(=O)O)ccc1NC(C)=O	9.4
COc1cc([C@H]2[C@](NC(=O)c3ccc(NC(=O)CCl)cc3)(C(=O)O)[C@@H](c3ccc(OC(=O)c4cccs4)c(OC)c3)[C@]2(NC(=O)c2ccc(NC(=O)CCl)cc2)C(=O)O)ccc1OC(=O)c1cccs1	32.9
COc1cc([C@H]2[C@](NC(=O)c3ccc(NC(=O)OC(C)(C)C)cc3)(C(=O)O)[C@@H](c3ccc(OC(=O)c4cccs4)c(OC)c3)[C@]2(NC(=O)c2ccc(NC(=O)OC(C)(C)C)cc2)C(=O)O)ccc1OC(=O)c1cccs1 (stereo in doubt)	70.5
